IC50 data for Estrogen receptor beta (Homo sapiens, UniProt Q92731) follow.
Assay readout: IC50 (nM)

>  <Entry smiles>
CCCCCc1cc(O)cc2c1C(=O)[C@@H](c1ccc(O)cc1)[C@@H](c1ccc(OCCN3CCCCC3)cc1)O2

>  <System>
Estrogen receptor beta (Homo sapiens, UniProt Q92731)
Sequence (Q92731 whole entry): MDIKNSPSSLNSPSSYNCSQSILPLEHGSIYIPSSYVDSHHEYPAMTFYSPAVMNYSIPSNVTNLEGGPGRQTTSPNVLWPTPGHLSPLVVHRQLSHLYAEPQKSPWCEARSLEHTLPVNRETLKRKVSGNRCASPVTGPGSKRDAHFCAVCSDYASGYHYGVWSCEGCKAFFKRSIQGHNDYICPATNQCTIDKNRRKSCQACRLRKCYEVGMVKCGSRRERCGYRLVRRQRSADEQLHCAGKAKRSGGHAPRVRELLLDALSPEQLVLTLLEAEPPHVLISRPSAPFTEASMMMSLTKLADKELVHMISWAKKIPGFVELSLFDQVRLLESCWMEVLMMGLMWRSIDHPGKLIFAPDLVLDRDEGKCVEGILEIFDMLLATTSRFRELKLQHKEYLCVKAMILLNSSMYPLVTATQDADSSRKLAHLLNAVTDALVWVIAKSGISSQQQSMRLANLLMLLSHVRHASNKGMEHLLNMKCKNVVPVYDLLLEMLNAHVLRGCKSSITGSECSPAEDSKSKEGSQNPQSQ

>  <IC50 [nM]>
454

$$$$
>  <Entry smiles>
O=C1c2ccc(O)cc2O[C@H](c2ccc(OCCN3CCCCC3)cc2)[C@@H]1c1ccccc1

>  <System>
Estrogen receptor beta (Homo sapiens, UniProt Q92731)

>  <IC50 [nM]>
10000

$$$$
>  <Entry smiles>
O=C1c2ccc(O)cc2O[C@H](c2ccc(O)cc2)[C@@H]1c1ccc(O)cc1

>  <System>
Estrogen receptor beta (Homo sapiens, UniProt Q92731)

>  <IC50 [nM]>
598

$$$$
>  <Entry smiles>
Cc1cc(O)cc2c1C(=O)[C@@H](c1ccc(O)cc1)[C@@H](c1ccc(OCCN3CCCCC3)cc1)O2

>  <System>
Estrogen receptor beta (Homo sapiens, UniProt Q92731)

>  <IC50 [nM]>
546

$$$$

I. O=C1c2ccc(O)cc2O[C@H](c2ccc(OCCN3CCCCC3)cc2)[C@@H]1c1ccc(O)cc1
II. O=C1c2c(Cl)cc(O)cc2O[C@H](c2ccc(OCCN3CCCCC3)cc2)[C@@H]1c1ccc(O)cc1
III. O/N=C1\c2ccc(O)cc2O[C@H](c2ccc(OCCN3CCCCC3)cc2)[C@@H]1c1ccc(O)cc1
IV. CCCc1cc(O)cc2c1C(=O)[C@@H](c1ccc(O)cc1)[C@@H](c1ccc(OCCN3CCCCC3)cc1)O2
Prompt line: Hi! Can you put these in order of IC50, lowest number first? Enter labels, ranked according to the request.
Response line: IV, II, I, III
(IV: 207 nM, II: 1270 nM, I: 2050 nM, III: 8610 nM)
